Protocol details: Microsomal stability (rat)
Format: in vitro ADME
Particulars: rat microsomes
Observed property: Microsomal Stability (rat) T1/2 (min)

Sample records with Microsomal Stability (rat) T1/2:
>  <Compound>
Cc1c(C#N)cccc1-n1c(=O)ccc2cnc3ccc(-c4ccc(N)nc4)cc3c21

>  <Unit abbrev>
min

>  <Observed result>
19

$$$$
>  <Compound>
Cc1cc(C(=O)NCCCN2CCN(C)CC2)ccc1-n1c(=O)ccc2cnc3ccc(-c4ccc(Cl)cc4)cc3c21

>  <Unit abbrev>
min

>  <Observed result>
4.1

$$$$

(1) Cc1cc(N2CCNCC2)c(C#N)cc1-n1c(=O)ccc2cnc3ccc(-c4ccc(Cl)cc4)cc3c21 [Compound 11]
(2) CN(C)C(=O)c1ccc(-n2c(=O)ccc3cnc4ccc(-c5ccc(Cl)cc5)cc4c32)cc1
Query: Between 1 and 2 , which one shows the larger Microsomal Stability (rat) T1/2 value? In your reply, give the label of the chosen option.
Reply: 1
(1: 9.6 min, 2: 3.8 min)

(A) Cn1c(=O)n(-c2cccc(C#N)c2)c2c3cc(-c4cccc(O)c4)ccc3ncc21
(B) CN1CCN(C(=O)c2ccc(-n3c(=O)ccc4cnc5ccc(-c6ccc(Cl)cc6)cc5c43)cc2)CC1
Query: Decide: A or B , by lowest recorded Microsomal Stability (rat) T1/2. In your reply, give the label of the chosen option.
Reply: B

(a) COc1cc(C(=O)N2CCOCC2)ccc1-n1c(=O)ccc2cnc3ccc(-c4ccc(F)cc4)cc3c21
(b) O=C(NC1CC1)c1ccc(-n2c(=O)ccc3cnc4ccc(-c5ccc(F)c(O)c5)cc4c32)cc1
(c) Cc1cc(S(C)(=O)=O)ccc1-n1c(=O)ccc2cnc3ccc(-c4ccc(Cl)cc4)cc3c21
(d) COc1cc(C(=O)NCCCN2CCC(C)CC2)ccc1-n1c(=O)ccc2cnc3ccc(-c4ccc(Cl)cc4)cc3c21
(e) COC(=O)c1cc(-c2ccc3ncc4ccc(=O)n(-c5ccc(S(C)(=O)=O)cc5)c4c3c2)ccc1Cl
Query: Arrange these compounds by their Microsomal Stability (rat) T1/2, starting with the largest number. Put the labels in the requested order and write them down.
Reply: b, c, a, e, d

(1) Cc1cc(C(=O)NCCN(C)c2ccccc2)ccc1-n1c(=O)ccc2cnc3ccc(-c4ccc(Cl)cc4)cc3c21
(2) Cc1cc(S(C)(=O)=O)ccc1-n1c(=O)ccc2cnc3ccc(-c4ccc(N)nc4)cc3c21
Query: Between 1 and 2 , which one shows the larger Microsomal Stability (rat) T1/2 value? In your reply, give the label of the chosen option.
Reply: 2
(2: 31.3 min, 1: 1.7 min)

* * *

Protocol details: PAMPA permeability
Assay type: in vitro ADME
Observed property: PAMPA Permeability (×10⁻⁶ cm/s)

(I) Cn1c(=O)n(-c2cccc(C#N)c2)c2c3cc(-c4ccc(N)cc4)ccc3ncc21
(II) COc1cc(C(=O)N2CCOCC2)ccc1-n1c(=O)ccc2cnc3ccc(-c4ccc(CN(C)C)cc4)cc3c21
(III) CN(C)Cc1cccc(-c2ccc3ncc4ccc(=O)n(-c5ccc(C(=O)N6CCOCC6)cc5)c4c3c2)c1
Query: Ranking field: PAMPA Permeability; order: falling. Put the labels in the requested order and write them down.
Reply: III, II, I
(III: 366 ×10⁻⁶ cm/s, II: 162 ×10⁻⁶ cm/s, I: 18.4 ×10⁻⁶ cm/s)

* * *

Protocol details: PAMPA permeability
Format: in vitro ADME
Particulars: PAMPA
Observed property: PAMPA Permeability (×10^6 cm/s)

Sample records with PAMPA Permeability (×10^6 cm/s):
>  <Compound smiles>
CCN1Cc2cc(-n3c(=O)ccc4cnc5ccc(-c6ccc(F)cc6)cc5c43)ccc2C1=O

>  <Observed result>
199.84 ×10^6 cm/s

$$$$
>  <Compound smiles>
O=C1NCc2cc(-n3c(=O)ccc4cnc5ccc(-c6ccc(CN7CCOCC7)cc6)cc5c43)ccc21

>  <Observed result>
55 ×10^6 cm/s

$$$$
>  <Compound smiles>
CN(C)C=NS(=O)(=O)c1ccc(-n2c(=O)ccc3cnc4ccc(-c5ccc(Cl)cc5)cc4c32)cc1

>  <Observed result>
34.8 ×10^6 cm/s

$$$$
>  <Compound smiles>
CN(C)Cc1ccc(-c2ccc3ncc4ccc(=O)n(-c5cccc(C#N)c5)c4c3c2)cc1

>  <Observed result>
1040.6 ×10^6 cm/s

$$$$
>  <Compound smiles>
CN(C)Cc1ccc(-c2ccc3ncc4ccc(=O)n(-c5ccc6c(c5)CNC6=O)c4c3c2)cc1

>  <Observed result>
5.2 ×10^6 cm/s

$$$$

Now consider the entry below.
Query: Which PAMPA Permeability (×10^6 cm/s) is listed for CS(=O)(=O)c1ccc(-n2c(=O)ccc3cnc4ccc(-c5ccc(Cl)cc5)cc4c32)cc1CN1CCOCC1 ?
Reply: 135 ×10^6 cm/s

Data origin, for the record: patent US11753408B2
